# Tested on: Spirodela polyrhiza
# Protocol: Bleaching herbicidal activity in Spirodela polyrhiza fronds cultured in compound-containing in medium assessed as chlorophyll inhibition at 10 ug/ml after 7 days
# Format: functional
# Protocol Conditions: 168 h
Reported Endpoint: inhibition at 10 µg/mL (%)
Quick reminder: number only, in %, skip the unit.

Query block: Item "Cc1cc(-c2cccc(C(F)(F)F)c2)c(OCc2ccccc2F)nn1" has what recorded inhibition at 10 µg/mL?
Result block: 71

Query block: Item "Cc1cc(-c2cccc(C(F)(F)F)c2)c(Oc2ccc(C#N)cc2)nn1" has what recorded inhibition at 10 µg/mL?
Result block: 93

Query block: Item "Cc1cc(C)cc(Oc2nnc(C)cc2-c2cccc(C(F)(F)F)c2)c1" has what recorded inhibition at 10 µg/mL?
Result block: 63

Query block: Item "Cc1cc(-c2cccc(C(F)(F)F)c2)c(Oc2cccc(Cl)c2)nn1" has what recorded inhibition at 10 µg/mL?
Result block: 72

Query block: Item "Cc1cc(-c2cccc(C(F)(F)F)c2)c(OCc2cccc(Cl)c2)nn1" has what recorded inhibition at 10 µg/mL?
Result block: 45
